Ref: ChEMBL document CHEMBL2034817

Test: Plasma protein binding in dog at 5 uM after 1 hr by LC-MS/MS analysis
Format: ADME, cell-free, Canis lupus familiaris
Conditions: read-out: PPB (converted)
QUANTITY KIND: fraction unbound at 1 h, 5 µM

>>> value_measured("C[C@@H]1CCCN1CCCOc1ccc(-c2cn[nH]c(=O)c2)cc1")
0.8

* * *

Entries and their Ki values follow.
Molecular target: Histamine H1 receptor (Homo sapiens, UniProt P35367)
Sequence (P35367 whole entry): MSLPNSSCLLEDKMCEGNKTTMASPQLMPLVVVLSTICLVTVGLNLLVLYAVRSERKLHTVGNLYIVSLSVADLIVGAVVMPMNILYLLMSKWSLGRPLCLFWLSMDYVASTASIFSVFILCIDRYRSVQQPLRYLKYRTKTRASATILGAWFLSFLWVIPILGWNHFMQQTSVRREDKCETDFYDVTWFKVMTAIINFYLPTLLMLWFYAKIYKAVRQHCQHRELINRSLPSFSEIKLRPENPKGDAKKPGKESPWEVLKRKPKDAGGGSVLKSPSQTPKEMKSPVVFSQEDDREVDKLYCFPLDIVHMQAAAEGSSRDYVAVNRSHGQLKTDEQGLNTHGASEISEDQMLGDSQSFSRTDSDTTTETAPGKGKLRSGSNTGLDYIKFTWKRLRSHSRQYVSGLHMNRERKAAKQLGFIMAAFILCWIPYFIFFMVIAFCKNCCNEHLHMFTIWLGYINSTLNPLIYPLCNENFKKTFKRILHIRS
Assay: Binding affinity to human histamine H1 receptor
QUANTITY KIND: Ki

>>> value_measured("COCn1ncc(-c2ccc(OCCCN3CCC[C@H]3C)cc2)cc1=O")
"> 10 µM"
>>> value_measured("C[C@H](COc1ccc(-c2cn[nH]c(=O)c2)cc1)CN1CCC[C@H]1C")
"> 10 µM"

* * *

Protein target, amino acids: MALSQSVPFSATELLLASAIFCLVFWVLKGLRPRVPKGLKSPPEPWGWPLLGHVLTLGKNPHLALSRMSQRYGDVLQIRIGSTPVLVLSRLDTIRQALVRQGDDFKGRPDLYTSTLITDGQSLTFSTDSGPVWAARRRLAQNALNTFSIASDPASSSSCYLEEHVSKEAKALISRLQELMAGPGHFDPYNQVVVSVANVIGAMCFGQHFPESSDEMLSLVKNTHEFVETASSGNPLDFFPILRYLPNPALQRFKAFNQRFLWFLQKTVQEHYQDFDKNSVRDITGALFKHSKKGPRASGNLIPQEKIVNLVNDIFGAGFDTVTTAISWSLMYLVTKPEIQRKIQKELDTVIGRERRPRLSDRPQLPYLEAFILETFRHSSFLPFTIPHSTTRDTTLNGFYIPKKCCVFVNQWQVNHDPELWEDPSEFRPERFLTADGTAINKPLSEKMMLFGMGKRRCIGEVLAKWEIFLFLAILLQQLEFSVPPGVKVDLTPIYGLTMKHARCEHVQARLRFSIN
QUANTITY KIND: IC50

>>> value_measured("C[C@H](COc1ccc(-c2cn[nH]c(=O)c2)cc1)CN1CCC[C@H]1C")
"> 30 µM"

* * *

Test: Half life in Sprague-Dawley rat at 1 mg/kg, iv
Type: ADME, organism-based
Set-up: dose 1 mg/kg, route intravenous
Conditions: in vivo
Entries and their half-life values follow.
QUANTITY KIND: half-life (h)

>>> value_measured("COCn1ncc(-c2ccc(OCCCN3CCC[C@H]3C)cc2)cc1=O")
0.4
>>> value_measured("C[C@H](COc1ccc(-c2cn[nH]c(=O)c2)cc1)CN1CCC[C@H]1C")
2.1

* * *

Experiment: Plasma protein binding in mouse at 5 uM after 1 hr by LC-MS/MS analysis
Type: ADME, cell-free
Settings: read-out: PPB (converted)
QUANTITY KIND: fraction unbound at 1 h, 5 µM

>>> value_measured("C[C@@H]1CCCN1CCCOc1ccc(-c2cn[nH]c(=O)c2)cc1")
0.8

* * *

Assay: Oral bioavailability in Sprague-Dawley rat at 5 mg/kg
Type: ADME, organism-based
Conditions: in vivo
QUANTITY KIND: bioavailability (%)

>>> value_measured("C[C@H](COc1ccc(-c2cn[nH]c(=O)c2)cc1)CN1CCC[C@H]1C")
24
>>> value_measured("COCn1ncc(-c2ccc(OCCCN3CCC[C@H]3C)cc2)cc1=O")
6
>>> value_measured("C[C@@H]1CCCN1CCCOc1ccc(-c2cn[nH]c(=O)c2)cc1")
22
